# protocol: NCI Yeast Anticancer Drug Screen. Data for the mec2-1 strain (AID 157)
# cond: S. cerevisiae mec2-1 strain, at 50.0 µM
# Experimental: Growth inhibition of yeast strains with defined genetic alterations is measured as a screen for potential anti-cancer activity. Selected strains with alterations in DNA damage repair or cell cycle control were exposed to compounds and growth inhibition was measured relative to vehicle treated controls. The strain used in this assay is mec2-1
About 79,000 compounds went through this panel and 15% of them were active in at least one assay; those are over-represented in the sample as a whole. Active and inactive are the calls of the source. Cut-off read from the data, not from the text of the source: active = growth inhibition above about 70%; inactive = the rest.
Outcome codes: YES (active), NO (inactive)

compound=CC(C)(C)[SH+]CC[SH+]C(C)(C)C.[C-]#[O+].[C-]#[O+].[C-]#[O+].[C-]#[O+].[Cr] class_assignment=NO
compound="CC(C(O)c1cccnc1)[N+](=O)[O-] (stereo unspecified)" class_assignment=NO
compound=c1ccc2c(c1)cc1ccc3cccc4ccc2c1c34 class_assignment=NO
compound="CC1(OO)CCC2CC1C2(C)C (stereo unspecified)" class_assignment=YES
compound="CC1(C)SC2C(NC(=O)Cc3ccccc3)C(=O)N2C1C(=O)O (stereo unspecified) (tested in a mixture with another compound)" class_assignment=NO
compound="CCOC(=O)C1Cc2ccc(OC)cc2C2=CC(=O)CCC21 (stereo unspecified)" class_assignment=NO
compound=CCC1(CC(C)(C)Cl)C(=O)NC(=O)NC1=O class_assignment=NO
compound="CCOC(=O)C(=O)C1CCNC1=O (stereo unspecified)" class_assignment=NO
compound=CC(=O)[O][Hg][c]1ccc(N)[c]([Hg][O]C(C)=O)c1 class_assignment=YES
compound="OC1C2CCCCN2C[C@@H](O)[C@H]1O (stereo partly specified)" class_assignment=NO
compound=CCC[CH2][Sn]([CH2]CCC)([CH2]CCC)[CH2]S(=O)(=O)O class_assignment=YES

###

Catalogue of growth inhibition values
# protocol: NCI Yeast Anticancer Drug Screen. Data for the bub3 strain (AID 167)
# cond: S. cerevisiae bub3 mutant strain, at 50.0 µM, hits give high values
About 79,000 compounds went through this panel and 15% of them were active in at least one assay; those are over-represented in the sample as a whole. Where a SMILES comes first, the peptide text is derived from it. [ ]: non-standard residue; d: D form. The star is where a group is joined. ξ: configuration not given here. ξNMe2Val = CC(C)C(C(=O)*)N(C)C; NMeV = CN[CH](C(=O)O)C(C)C; NHBn = c1ccc(CN*)cc1
attribute-measured: growth inhibition (%)

compound="Cc1ccc(S(=O)(=O)/N=[Se](\\C)c2ccccc2)cc1 (stereo not drawn)" value_unit=% assay_value=80
compound=Cc1c(OCC(=O)N/N=C/c2ccc(N(CCCl)CCCl)cc2)ccc2c(=O)c3ccccc3oc12 value_unit=% assay_value=13.8
compound=CCC[CH2][Sn]([Br])([CH2]CCC)[CH2]CCC value_unit=% assay_value=89.4
compound=C[C@]12Cc3sc(N)nc3C[C@@H]1CC[C@@H]1[C@@H]2CC[C@@]2(C)[C@H]1CC[C@]2(C)O value_unit=% assay_value=25.6
compound=COc1ccc(CCN(C)Cc2cccc(OC)c2OC)cc1OC value_unit=% assay_value=-16.1
compound=CCCCCCC1C(=O)NC(=O)NC1=O value_unit=% assay_value=2.6
compound=N#CCCCl value_unit=% assay_value=-1.65
compound="C[CH2][Sn]1([CH2]C)[O]OC(c2ccccc2)[O]1 (stereo not drawn)" value_unit=% assay_value=14.1
compound=Oc1cccc2cccnc12.[Cr] value_unit=% assay_value=-16.9
compound=CCCCCCCCCCCCCCCC[N+](C)(C)CCOS(C)(=O)=O value_unit=% assay_value=92.4
compound="CC1(C(=O)O)C2[Se]c3cc[se]c3C2C1(C)C(=O)O (stereo not drawn)" value_unit=% assay_value=1
compound="CCOc1ccc(P2(=S)SP(=S)(c3ccc(OCC)cc3)S2)cc1 (stereo not drawn)" value_unit=% assay_value=17.1
compound=[C-]#[O+].[C-]#[O+].[C-]#[O+].[C-]#[O+].[Cr].c1ccc([PH+](CC[PH+](c2ccccc2)c2ccccc2)CC[PH+](c2ccccc2)c2ccccc2)cc1 value_unit=% assay_value=19.4
compound=CC1(C)CN1C1=C(Br)C(=O)C(N2CC2(C)C)=C(Br)C1=O value_unit=% assay_value=-0.65
compound=COc1cc([C@@H]2c3cc(O)c(OC)cc3C[C@H]3C(=O)OC[C@@H]23)ccc1O value_unit=% assay_value=25.3
compound=CC[CH2][Sn](=[O])[c]1ccccc1 value_unit=% assay_value=50.6
compound="CCOC(=O)C1Oc2ccc([N+](=O)[O-])c3c2C1(O)CCC3 (stereo not drawn)" value_unit=% assay_value=-8.8
compound="COC(=O)C1C(O)CC2(O)CC(O)CC(O)C(O)CCC(O)CC(O)CC(=O)OC(C)C(C)C(O)C(C)/C=C/C=C/C=C/C=C/C=C/C=C/C=C/C(OC3OC(C)C(O)C(N)C3O)CC1O2 (stereo not drawn)" value_unit=% assay_value=1.6
compound="O=C1NN(c2ccccc2)C(=O)C1c1ccccc1 (stereo not drawn)" value_unit=% assay_value=-5.9
compound="COc1ccc2c(c1O)[C@@]13CCN(C)[C@@H](C2)[C@H]1CC(C)C(=O)C3 (stereo partly drawn)" value_unit=% assay_value=-0.6
compound="CC1(C)CC(N)C(=O)c2ccccc21 (stereo not drawn)" value_unit=% assay_value=-4.4
compound=COC(=O)c1ccc(C=C(C#N)C#N)cc1 value_unit=% assay_value=2.45
compound=O=C(N/N=C/c1cc(Br)cc(Br)c1[O-])c1ccccc1O.O=C(N/N=C/c1cc(Br)cc(Br)c1[O-])c1ccccc1O.[Cl-].[Fe+3] value_unit=% assay_value=12.1
compound="CC[C@@]1(O)C[C@H](OC2CC(N(C)C)C(O)C(C)O2)c2c(cc3c(c2O)C(=O)c2c(O)ccc(O)c2C3=O)[C@H]1C(=O)OC (stereo partly drawn)" value_unit=% assay_value=91.2
compound=O=C(Cc1ccccc1)OC1CCCC1 value_unit=% assay_value=-3.3
compound="CC(=O)OC1[C@H](n2ccnc2)C[C@H]2[C@@H]3CC=C4CC(N5CCCC5)CC[C@]4(C)[C@H]3CC[C@]12C (stereo partly drawn)" value_unit=% assay_value=-48.8
compound=CCCCN=C=S value_unit=% assay_value=-3.8
compound=[Cl][Tl] value_unit=% assay_value=-41
compound=CNC(=O)Oc1cc(OC)ccc1C(=O)c1ccccc1 value_unit=% assay_value=5.35
compound=CN(C)c1ccc(N=Nc2c([O-])ccc3ccccc23)cc1.[C-]#[O+].[C-]#[O+].[Ir] value_unit=% assay_value=-10.2
compound="CC(Cl)C(=O)OC(C)C(=O)O (stereo not drawn)" value_unit=% assay_value=-2.7
compound=O=[N+]([O-])c1ccc2c(c1)Oc1cccnc1[Se]2 value_unit=% assay_value=-11.5
compound="CC([NH-])C[NH-].[Na+].[O]=[Co][O-] (stereo not drawn)" value_unit=% assay_value=-0.25
compound="COc1ccc(CC(N)c2ccccc2)cc1OC (stereo not drawn)" value_unit=% assay_value=-1.55
compound=C=CCC1(/C(=C\CC)CCC)C(=O)NC(=O)NC1=O value_unit=% assay_value=-0.2
compound=CN(CCCl)Cc1ccc(OCc2ccccc2)c(OCc2ccccc2)c1 value_unit=% assay_value=99.4
compound=CC[PH+](CC)CC[S-].CC[PH+](CC)CC[S-].[Au+].[Au+] value_unit=% assay_value=8.1
compound="COc1cccc2c1C(=O)c1c(O)c3c(c(O)c1C2=O)CC(O)(C(=O)CO)CC3OC1CC(N2CCOCC2C#N)C(O)C(C)O1 (stereo not drawn)" value_unit=% assay_value=88.2
compound=COS(=O)(=O)c1ccccc1 value_unit=% assay_value=-4.55
compound="CC(C)C(NC(=O)C(C(C)C)N(C)C)C(=O)N(C)C(C(=O)N1CCCC1C(=O)N1CCCC1C(=O)NCc1ccccc1)C(C)C (stereo not drawn) (ξNMe2Val-V[NMeV]PP-NHBn; configuration not given here)" value_unit=% assay_value=3.55
compound="CCCN(CCC)CC(O)c1ccc2c3c(cccc13)CC2 (stereo not drawn)" value_unit=% assay_value=-4.6
compound=[Br][Co][Br].[NH-]CC[NH-].[NH-]CC[NH-] value_unit=% assay_value=22.9
compound="[NH-]C(CO)C(=O)O.[NH-]C(CO)C(=O)O.[Pd+2] (stereo not drawn)" value_unit=% assay_value=-5.95
